target: Carbonic anhydrase 9 (Homo sapiens)
test.readout: Ki (nM)

{"input.smiles": "NS(=O)(=O)c1ccc2nc(-n3cc(C(=O)O)c(-c4ccc([N+](=O)[O-])cc4)n3)sc2c1", "Ki [nM]": 60.4}
{"input.smiles": "NS(=O)(=O)c1ccc2nc(-n3cc(/C=N/O)c(-c4ccccc4)n3)sc2c1", "Ki [nM]": 114}
{"input.smiles": "Cc1ccc(-c2nn(-c3nc4ccc(S(N)(=O)=O)cc4s3)cc2/C=N/O)cc1", "Ki [nM]": 134}
{"input.smiles": "N#Cc1cn(-c2nc3ccc(S(N)(=O)=O)cc3s2)nc1-c1ccc([N+](=O)[O-])cc1", "Ki [nM]": 854}
{"input.smiles": "NS(=O)(=O)c1ccc2nc(-n3cc(C=O)c(-c4ccccc4)n3)sc2c1", "Ki [nM]": 1750}

P: Cc1ccc(-c2nn(-c3nc4ccc(S(N)(=O)=O)cc4s3)cc2C#N)cc1
Q: NS(=O)(=O)c1ccc2nc(-n3cc(C(=O)O)c(-c4ccc(F)cc4)n3)sc2c1
R: COc1ccc(-c2nn(-c3nc4ccc(S(N)(=O)=O)cc4s3)cc2C(=O)O)cc1
S: NS(=O)(=O)c1ccc2nc(-n3cc(C=O)c(-c4ccc([N+](=O)[O-])cc4)n3)sc2c1
Task field, ranking: reported Ki, descending order. A complete answer lists every label in the requested sequence. S, R, P, Q

A: COc1ccc(-c2nn(-c3nc4ccc(S(N)(=O)=O)cc4s3)cc2C=O)cc1
B: N#Cc1cn(-c2nc3ccc(S(N)(=O)=O)cc3s2)nc1-c1ccc(F)cc1
Lab log: flag the item ( A or B ) with the smaller Ki figure. Bench note: the answer is the label of the chosen record. A
